Assay: Pharmacokinetic experiments in male SD rats
Format: in vivo, rat
Settings: male, SD, rat, plasma, po, gavage, 10 mg/kg
quantity: Cmax (ng/mL)
Please give a number only; it is taken to be in ng/mL.

Q: Which Cmax is reported for this compound? O=C(c1ccc(F)cn1)N1CCC2(CC(O)c3cc(-c4ccccc4C4CC4)ccc32)C1 (stereo not shown)
A: 8050

* * *

Assay: Permeability experiment of Caco-2 cells
Assay type: in vitro ADME
Details: human, pH 7.4; Caco-2, 5 μM; read-out: External ratio
quantity: efflux ratio at 2 h, 5 μM
Kindly provide the number alone.

Q: State the recorded efflux ratio at 2 h, 5 μM for this entry: O=C(c1ccc(F)cn1)N1CC[C@@]2(C[C@@H](O)c3cc(-c4ccccc4C4CC4)ccc32)C1
A: 0.46
